Give measured Ratio of PDL1:CD28 for each item. Keep answers brief.
# SUBJECT_OF_TEST: huPD-L1 (Homo sapiens, UniProt Q9NZQ7)
# Sequence (Q9NZQ7 19-290): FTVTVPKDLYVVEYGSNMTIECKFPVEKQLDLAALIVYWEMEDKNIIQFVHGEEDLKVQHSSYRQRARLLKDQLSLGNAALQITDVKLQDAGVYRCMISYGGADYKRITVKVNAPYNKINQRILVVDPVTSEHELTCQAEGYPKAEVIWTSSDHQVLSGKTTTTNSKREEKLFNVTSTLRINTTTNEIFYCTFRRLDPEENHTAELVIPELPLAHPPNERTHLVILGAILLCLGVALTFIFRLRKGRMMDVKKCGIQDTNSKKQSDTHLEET
# MEASUREMENT_NOTES: Flow binding to CHO cells stably expressing PD-L1
# Set-up: huCTLA4 and huPD-L1, full-length mammalian surface expression constructs were generated; expressed in transfected cells; host or cells: CHO cells, lentiviral transduction, sorted to >98% purity
# ASSAY_CONDITIONS: Table E11; MFI at 33.3 nM
One number for each entry.

# annotated cases, reported Ratio of PDL1:CD28 shown
MOLECULE	DATA_VALUE
E35D/M43I/M47L/V68M (protein, UniProt P33681 35-288, looked up, variant E35D M43I M47L V68M) T-lymphocyte activation …: VIHVTKEVKEVATLSCGHNVSVEELAQTRIYWQKDKKMVLTMISGDLNIWPEYKNRTIFDITNNLSIMILALRPSDEGTYECVVLKYEKDAFKREHLAEVTLSVKADFPTPSISDFEIPTSNIRRIICSTSGGFPEPHLSWLENGEELNAINTTVSQDPETELYAVSSKLDFNMTTNHSFMCLIKYGHLRVNQTFNWNTTKQEHFPDNLLPSWAITLISVNGIFVICCLTYCFAPRCRERRRNERLRRESVRPV	11.1
E35D/M47V/N48KN68M/A71G/L85M (protein) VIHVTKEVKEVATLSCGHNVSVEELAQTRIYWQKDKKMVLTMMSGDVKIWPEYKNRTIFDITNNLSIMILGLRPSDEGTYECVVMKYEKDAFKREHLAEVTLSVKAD	75.4
T13R/Q33L/E35D/M47V/T62S/V68M/L85M (protein, UniProt P33681 35-288, looked up, variant T13R Q33L E35D M47V T62S V68M L85M) T-lymphocyte activation …: VIHVTKEVKEVARLSCGHNVSVEELAQTRIYWLKDKKMVLTMMSGDVNIWPEYKNRTIFDISNNLSIMILALRPSDEGTYECVVMKYEKDAFKREHLAEVTLSVKADFPTPSISDFEIPTSNIRRIICSTSGGFPEPHLSWLENGEELNAINTTVSQDPETELYAVSSKLDFNMTTNHSFMCLIKYGHLRVNQTFNWNTTKQEHFPDNLLPSWAITLISVNGIFVICCLTYCFAPRCRERRRNERLRRESVRPV	248.0
H18Y/V22D/E35D/M47V/N48K/V68M (protein, UniProt P33681 35-288, looked up, variant H18Y V22D E35D M47V N48K V68M) T-lymphocyte activation …: VIHVTKEVKEVATLSCGYNVSDEELAQTRIYWQKDKKMVLTMMSGDVKIWPEYKNRTIFDITNNLSIMILALRPSDEGTYECVVLKYEKDAFKREHLAEVTLSVKADFPTPSISDFEIPTSNIRRIICSTSGGFPEPHLSWLENGEELNAINTTVSQDPETELYAVSSKLDFNMTTNHSFMCLIKYGHLRVNQTFNWNTTKQEHFPDNLLPSWAITLISVNGIFVICCLTYCFAPRCRERRRNERLRRESVRPV	50.1
T13R/Q33R/E35D/M38I/M47L/V68M/L85M (protein, UniProt P33681 35-288, looked up, variant T13R Q33R E35D M38I M47L V68M L85M) T-lymphocyte activation …: VIHVTKEVKEVARLSCGHNVSVEELAQTRIYWRKDKKIVLTMMSGDLNIWPEYKNRTIFDITNNLSIMILALRPSDEGTYECVVMKYEKDAFKREHLAEVTLSVKADFPTPSISDFEIPTSNIRRIICSTSGGFPEPHLSWLENGEELNAINTTVSQDPETELYAVSSKLDFNMTTNHSFMCLIKYGHLRVNQTFNWNTTKQEHFPDNLLPSWAITLISVNGIFVICCLTYCFAPRCRERRRNERLRRESVRPV	77.9
Q33R/E35D/M38I/M47L/V68M (protein, UniProt P33681 35-288, looked up, variant Q33R E35D M38I M47L V68M) T-lymphocyte activation …: VIHVTKEVKEVATLSCGHNVSVEELAQTRIYWRKDKKIVLTMMSGDLNIWPEYKNRTIFDITNNLSIMILALRPSDEGTYECVVLKYEKDAFKREHLAEVTLSVKADFPTPSISDFEIPTSNIRRIICSTSGGFPEPHLSWLENGEELNAINTTVSQDPETELYAVSSKLDFNMTTNHSFMCLIKYGHLRVNQTFNWNTTKQEHFPDNLLPSWAITLISVNGIFVICCLTYCFAPRCRERRRNERLRRESVRPV	1107.5

Dear reader, for each entry below, please note its Ratio of PDL1:CD28.
1. T13R/Q33R/E35D/M38I/M47L/V68M/E95V/L97Q (protein, UniProt P33681 35-288, looked up, variant T13R Q33R E35D M38I M47L V68M E95V L97Q) T-lymphocyte activation …: VIHVTKEVKEVARLSCGHNVSVEELAQTRIYWRKDKKIVLTMMSGDLNIWPEYKNRTIFDITNNLSIMILALRPSDEGTYECVVLKYEKDAFKRVHQAEVTLSVKADFPTPSISDFEIPTSNIRRIICSTSGGFPEPHLSWLENGEELNAINTTVSQDPETELYAVSSKLDFNMTTNHSFMCLIKYGHLRVNQTFNWNTTKQEHFPDNLLPSWAITLISVNGIFVICCLTYCFAPRCRERRRNERLRRESVRPV
2. H18Y/E35D/V68M/T79M/L85M (protein, UniProt P33681 35-288, looked up, variant H18Y E35D V68M T79M L85M) T-lymphocyte activation …: VIHVTKEVKEVATLSCGYNVSVEELAQTRIYWQKDKKMVLTMMSGDMNIWPEYKNRTIFDITNNLSIMILALRPSDEGMYECVVMKYEKDAFKREHLAEVTLSVKADFPTPSISDFEIPTSNIRRIICSTSGGFPEPHLSWLENGEELNAINTTVSQDPETELYAVSSKLDFNMTTNHSFMCLIKYGHLRVNQTFNWNTTKQEHFPDNLLPSWAITLISVNGIFVICCLTYCFAPRCRERRRNERLRRESVRPV
3. H18Y/E35D/M47L/Y53F/V68M/A71G (protein, UniProt P33681 35-288, looked up, variant H18Y E35D M47L Y53F V68M A71G) T-lymphocyte activation …: VIHVTKEVKEVATLSCGYNVSVEELAQTRIYWQKDKKMVLTMMSGDLNIWPEFKNRTIFDITNNLSIMILGLRPSDEGTYECVVLKYEKDAFKREHLAEVTLSVKADFPTPSISDFEIPTSNIRRIICSTSGGFPEPHLSWLENGEELNAINTTVSQDPETELYAVSSKLDFNMTTNHSFMCLIKYGHLRVNQTFNWNTTKQEHFPDNLLPSWAITLISVNGIFVICCLTYCFAPRCRERRRNERLRRESVRPV
4. E35D/M47V/N48KN68M/L85M (protein) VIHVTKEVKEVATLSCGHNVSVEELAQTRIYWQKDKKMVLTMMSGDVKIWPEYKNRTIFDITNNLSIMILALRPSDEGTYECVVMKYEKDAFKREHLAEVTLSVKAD
5. T13R/Q33R/E35D/M38I/M47L/V68M (protein, UniProt P33681 35-288, looked up, variant T13R Q33R E35D M38I M47L V68M) T-lymphocyte activation …: VIHVTKEVKEVARLSCGHNVSVEELAQTRIYWRKDKKIVLTMMSGDLNIWPEYKNRTIFDITNNLSIMILALRPSDEGTYECVVLKYEKDAFKREHLAEVTLSVKADFPTPSISDFEIPTSNIRRIICSTSGGFPEPHLSWLENGEELNAINTTVSQDPETELYAVSSKLDFNMTTNHSFMCLIKYGHLRVNQTFNWNTTKQEHFPDNLLPSWAITLISVNGIFVICCLTYCFAPRCRERRRNERLRRESVRPV

[17.2, 14.3, 325.2, 31.1, 324.8]
